# System: Trypanosoma brucei
# PROCEDURE DETAILS: Trypanosoma brucei 72 hour study
# Assay type: functional, organism-based
# Parameters: scale not given: in the data most compounds retested in dose-response had high values
# CONDITIONS USED: 30 µM; 30.03 µM
In all, about 66,000 compounds went through this assay and about 960 (1.5%) showed an effect of 50% or more. Shown is part of a subset that was picked to be rich in strong results.
Percent Effect strictly under 20% means YES; at 20% or over means NO.

[[record]]
compound = "CC(C)(C)c1nccc(C2(c3ccccc3Cl)CCNCC2)n1"
system = "Trypanosoma brucei"
category = "NO"

[[record]]
compound = "N#Cc1cccc(C(=O)N2CCC3(CCC(=O)N(C4CC4)C3)CC2)c1"
system = "Trypanosoma brucei"
category = "YES"

[[record]]
compound = "O=C(O)C(F)(F)F.O=C(O)C(F)(F)F.O=C1CC(c2ccncc2)C2(CCN(Cc3ccc(F)cc3)CC2)N1 (configuration not stated)"
system = "Trypanosoma brucei"
category = "NO"

[[record]]
compound = "CC(C)Oc1ccc(CSc2nnc(CN3CCCC3=O)o2)cc1"
system = "Trypanosoma brucei"
category = "NO"

[[record]]
compound = "O=C(NCCCn1ccccc1=O)c1cnc(-c2ccsc2)s1"
system = "Trypanosoma brucei"
category = "NO"

[[record]]
compound = "CC(C)c1cccc(CSc2nnc(CN3CCCC3=O)o2)n1"
system = "Trypanosoma brucei"
category = "YES"

[[record]]
compound = "O=C(N1CCCO1)[C@@]12CCO[C@@H]1CCN(C1CCCCC1)C2.O=C(O)C(F)(F)F"
system = "Trypanosoma brucei"
category = "NO"


====

# Test system: Trypanosoma brucei
# PROCEDURE DETAILS: Trypanosoma brucei 72 hour study
# Format: functional, organism-based
# Design: scale not given: in the data most compounds retested in dose-response had high values
# CONDITIONS USED: 30 µM; 30.03 µM
Out of some 66,000 compounds screened, about 960 (1.5%) showed an effect of 50% or more. The sample holds strong results, similar compounds and a random draw of the others, so the mix is not that of the screen.
PROPERTY: Percent Effect (%)

[[record]]
molecule = "Cc1ccc(C(=O)N2CCc3ncnc(C)c3CC2)cn1"
property = "Percent Effect"
units_of_measure = "%"
observed_measurement = 1.33

[[record]]
molecule = "Cc1ncc(C(=O)NCCOc2ccccc2F)c(C)n1"
property = "Percent Effect"
units_of_measure = "%"
observed_measurement = -71.35

[[record]]
molecule = "N#Cc1cccc(CN2CCC3(CC2)CC(c2ccncc2)C(=O)N3)c1.O=C(O)C(F)(F)F.O=C(O)C(F)(F)F (stereo not drawn)"
property = "Percent Effect"
units_of_measure = "%"
observed_measurement = 43.46

[[record]]
molecule = "O=C(O)C(F)(F)F.O=C(O)C(F)(F)F.c1nc2n(c1CN1CCCCC1)CCN(C1CCOC1)CC2 (stereo not drawn)"
property = "Percent Effect"
units_of_measure = "%"
observed_measurement = -102.4

[[record]]
molecule = "COc1ccc(-c2nc(CCNC(=O)NC3CCC(O)CC3)co2)cc1 (stereo not drawn)"
property = "Percent Effect"
units_of_measure = "%"
observed_measurement = -54.4

[[record]]
molecule = "Cc1cc(N2CCN(C(=O)c3cc(Cl)c[nH]3)CC2)nc(N)n1"
property = "Percent Effect"
units_of_measure = "%"
observed_measurement = 109.2

[[record]]
molecule = "CNc1nc(C)c(C(=O)N2CCCCC2CN2CCCCCC2)s1 (stereo not drawn)"
property = "Percent Effect"
units_of_measure = "%"
observed_measurement = 17.59

[[record]]
molecule = "O=C(O)C(F)(F)F.O=C(c1ncccn1)N1C[C@H]2CCC[C@@]2(COCc2ccncc2)C1"
property = "Percent Effect"
units_of_measure = "%"
observed_measurement = 14.62

[[record]]
molecule = "CC(C)Nc1nc(N2CCOCC2)nc2c1CN(CC(=O)N(C)C)CC2"
property = "Percent Effect"
units_of_measure = "%"
observed_measurement = -12.25

[[record]]
molecule = "CNc1ccnc(NCCC(=O)Nc2ccccc2C)n1"
property = "Percent Effect"
units_of_measure = "%"
observed_measurement = 51.25

[[record]]
molecule = "O=C(CCc1cccs1)N1CCc2[nH]nc(COc3ccccc3)c2C1"
property = "Percent Effect"
units_of_measure = "%"
observed_measurement = 68.24

[[record]]
molecule = "O=C(NCCc1coc(-c2ccc(F)cc2)n1)NC1CCC(O)CC1 (stereo not drawn)"
property = "Percent Effect"
units_of_measure = "%"
observed_measurement = -16.25

[[record]]
molecule = "Cc1cncc(C(=O)N2C[C@H]3CCC[C@@]3(COc3ccccn3)C2)c1.O=C(O)C(F)(F)F.O=C(O)C(F)(F)F"
property = "Percent Effect"
units_of_measure = "%"
observed_measurement = 53.76

[[record]]
molecule = "Cc1ccccc1NC(=O)CCNC(=O)c1ccoc1"
property = "Percent Effect"
units_of_measure = "%"
observed_measurement = -20.37

[[record]]
molecule = "O=C(CCc1ccco1)N1CCc2[nH]nc(COc3ccccc3)c2C1"
property = "Percent Effect"
units_of_measure = "%"
observed_measurement = -57.79

[[record]]
molecule = "Fc1cnc(N2C[C@H]3CCC[C@@]3(COc3ccccn3)C2)nc1.O=C(O)C(F)(F)F.O=C(O)C(F)(F)F"
property = "Percent Effect"
units_of_measure = "%"
observed_measurement = 83.95

[[record]]
molecule = "COc1ccccc1CN1CC[C@]2(C[C@@H](OC)CO2)C1.O=C(O)C(F)(F)F"
property = "Percent Effect"
units_of_measure = "%"
observed_measurement = -26.27

[[record]]
molecule = "CC(C)c1n[nH]c(C(=O)Nc2cc[nH]n2)c1Br"
property = "Percent Effect"
units_of_measure = "%"
observed_measurement = -42.25

[[record]]
molecule = "Fc1cccnc1N1CCOCC2(CCCN(c3nncs3)C2)C1.O=C(O)C(F)(F)F (stereo not drawn)"
property = "Percent Effect"
units_of_measure = "%"
observed_measurement = 36.62

[[record]]
molecule = "CCOCC1CN(Cc2nccs2)Cc2nn(CC3CC3)cc21.O=C(O)C(F)(F)F (stereo not drawn)"
property = "Percent Effect"
units_of_measure = "%"
observed_measurement = -7.531

[[record]]
molecule = "Cc1ccc(C(=O)N2C[C@@H](OCc3cccnc3)[C@H]3OCCC[C@@H]32)o1.O=C(O)C(F)(F)F"
property = "Percent Effect"
units_of_measure = "%"
observed_measurement = 5.646

[[record]]
molecule = "Cc1ccccc1C(Nc1ncnc2c1CCNC2)c1ccccc1 (stereo not drawn)"
property = "Percent Effect"
units_of_measure = "%"
observed_measurement = -12.11

[[record]]
molecule = "CNc1ccnc(NCCC(=O)Nc2ccccc2OC)n1"
property = "Percent Effect"
units_of_measure = "%"
observed_measurement = 54.56

[[record]]
molecule = "COCCC(=O)N1CC2(CCN(Cc3cccc(Cl)c3)CC2)C1.O=C(O)C(F)(F)F"
property = "Percent Effect"
units_of_measure = "%"
observed_measurement = -25.19

[[record]]
molecule = "COc1ccccc1NC(=O)CCNC(=O)c1ccoc1"
property = "Percent Effect"
units_of_measure = "%"
observed_measurement = -15.64

[[record]]
molecule = "Cl.NC(CC1CCCC1)c1ccccc1 (stereo not drawn)"
property = "Percent Effect"
units_of_measure = "%"
observed_measurement = -30.59

[[record]]
molecule = "Cc1ccoc1C(=O)N1C[C@H]2CCC[C@@]2(COCc2ccncc2)C1.O=C(O)C(F)(F)F"
property = "Percent Effect"
units_of_measure = "%"
observed_measurement = 58.51

[[record]]
molecule = "CC(C)c1n[nH]c(C2CN(C(=O)CCn3ccccc3=O)CCO2)n1 (stereo not drawn)"
property = "Percent Effect"
units_of_measure = "%"
observed_measurement = 52.13


====

# System: Trypanosoma brucei
# PROCEDURE DETAILS: Trypanosoma brucei 72 hour study
# Type: functional, organism-based
# Set-up: scale not given: in the data most compounds retested in dose-response had high values
# CONDITIONS USED: 30.3 µM; […]
About 960 (1.5%) of roughly 66,000 compounds showed an effect of 50% or more. Shown is part of a subset that was picked to be rich in strong results.
PROPERTY: Percent Effect (%)

[[record]]
molecule = "O=C(O)C(F)(F)F.O=S(=O)(C1CC1)N1CCO[C@H]2[C@@H](Oc3ncccc3F)CC[C@@H]21"
observed_measurement = -15.89

[[record]]
molecule = "Cl.c1cncc(CNc2cncc(C3CCCN3)n2)c1 (configuration not stated)"
observed_measurement = -3.878

[[record]]
molecule = "CCS(=O)(=O)N1CCC2(CC1)CN(CC1CCOC1)c1ccccc12.O=C(O)C(F)(F)F (configuration not stated)"
observed_measurement = 14.83

[[record]]
molecule = "C[C@@H](N)C(=O)N1CC2(CCNCC2)c2cc(Cl)ccc21.Cl.Cl"
observed_measurement = 51.33

[[record]]
molecule = "CC1(C)CC(N(Cc2ccccc2)Cc2cccnc2)CC(C)(C)N1.O=C(O)CC(O)(CC(=O)O)C(=O)O"
observed_measurement = 27.73

[[record]]
molecule = "Cl.Cl.O=C([C@H]1CCCN1)N1CC2(CCNCC2)c2cc(Cl)ccc21"
observed_measurement = 11.24

[[record]]
molecule = "Cc1ccc2c(c1)C1(CCNCC1)CN2C(=O)C(C)C"
observed_measurement = -10.81

[[record]]
molecule = "O=C(O)C(F)(F)F.c1ccc2c(c1)N(CC1CCOC1)CC21CCN(c2cnccn2)CC1 (configuration not stated)"
observed_measurement = 99.95

[[record]]
molecule = "COc1cccc(CN2CCCC(c3nn(C)c4nccnc34)C2)c1.Cl (configuration not stated)"
observed_measurement = -9.344

[[record]]
molecule = "Cc1ccc(C(C)NCc2cn(CCC(N)=O)c3ccccc23)cc1C (configuration not stated)"
observed_measurement = 96.45

[[record]]
molecule = "CC1(C)CC(N(Cc2ccncc2)Cc2cccnc2)CC(C)(C)N1.O=C(O)CC(O)(CC(=O)O)C(=O)O"
observed_measurement = 3.133

[[record]]
molecule = "Cc1cccc(CN(Cc2cccnc2)C2CC(C)(C)NC(C)(C)C2)n1.O=C(O)CC(O)(CC(=O)O)C(=O)O"
observed_measurement = -21.3

